# Tested on: RPMI-8226 leukemia
# testName: NCI tumour cell line growth inhibition, 48 h
measureName: TGI

Req: What value of TGI on RPMI-8226 leukemia does "Cc1cc(NC(=O)NC(=O)c2ccccc2[N+](=O)[O-])ccc1Oc1ncc(Cl)cn1" have?
Resp: > 100 µM

Req: What value of TGI on RPMI-8226 leukemia does "CCOC(=O)c1c(Nc2ccccc2)sc2cccnc12" have?
Resp: 58.3 µM

Req: What value of TGI on RPMI-8226 leukemia does COc1ccc(C2Cc3cc(OC)c(OC)c(OC)c3C2=O)cc1 (configuration not stated) have?
Resp: > 100 µM

Req: What value of TGI on RPMI-8226 leukemia does "CSc1nc2nc(C)c(C)nc2c(=O)[nH]1" have?
Resp: > 100 µM

* * *

The following molecules are listed with their measured TGI values.
# Tested on: UACC-62 melanoma
# testName: NCI tumour cell line growth inhibition, 48 h
Value expressed in µM; do not type the unit.

Below, 2 molecules whose answers are already recorded.
1. Oc1ccc(Cl)cc1Cc1cc(Cl)cc(Cc2cc(Cl)ccc2O)c1O    10.1
2. COc1ccc(Nc2nc(NCc3ccccc3)c3ccccc3n2)cc1    23.3

Proceed to the following item.
Req: What value of TGI on UACC-62 melanoma does "O=[n+]1cnn([O-])c2ccccc21" have?
Resp: 39.4

* * *

# Tested on: SNB-19 CNS
# testName: NCI tumour cell line growth inhibition, 48 h
measureName: TGI

1. Fc1ccc(C2(CCCN3CCc4[nH]c5cc(F)ccc5c4C3)OCCO2)cc1    23.3 µM
2. NC(=O)Cc1ccccc1Oc1nccc(-c2c(-c3ccc(F)cc3)ncn2C2CCNCC2)n1    > 25 µM
3. CN(C)c1ccc(/C=C2\C[C@H]3[C@@H]4CCC5=CC(=O)CC[C@]5(C)[C@H]4CC[C@]3(C)C2=O)cc1    > 100 µM

Proceed to the following item.
Req: TGI lookup needed for COC(=O)C1=C2C3=C(C(=O)c4ccccc4C3=O)N(Cc3ccccc3)C2(OC(C)=O)C=CC1=O (stereo not given) , thanks.
Resp: > 100 µM

* * *

The following compounds are listed with their measured TGI values.
# Test system: LOX IMVI melanoma
# testName: NCI tumour cell line growth inhibition, 48 h

1) C=CCOC1=C2CC[C@H](O)[C@@]2(C)CCC1=O    > 100 µM
2) CN(C)C(=O)c1nnsc1NN=O    > 100 µM
3) OCC1C(O)C(O)[C@@H]2SCCN12 (stereo partly specified)    > 100 µM
4) O=Cc1ncc(-c2ccc(C(F)(F)F)cc2)c(NC2CCCCCC2)n1    > 10 µM
5) O=C1OCC2=C1C(c1cccc([N+](=O)[O-])c1)c1cc3c(cc1N2CCO)CCC3 (stereo unspecified)    8.29 µM

Proceed to the following item.
Req: What value of TGI on LOX IMVI melanoma does "CCN(CC)CCC(=O)c1ccc(Oc2ccc(C)cc2)cc1" have?
Resp: 31 µM

* * *

The following compounds are listed with their measured TGI values.
# Tested on: EKVX NSCLC
# testName: NCI tumour cell line growth inhibition, 48 h

1) O=CC(O)C(O)C(O)COc1cc(CO)cc2c1C(=O)c1ccccc1C2=O (configuration not stated)    > 100 µM
2) OCC1OC(n2ccc3cnccc32)CC1O (configuration not stated)    > 100 µM
3) O=C(CN1CCOCC1)c1ccc2[nH]c(=O)oc2c1    > 100 µM
4) CCC(C#N)N(Cc1ccc(CN(C(=O)c2ccccc2)C(C#N)CC)cc1)C(=O)c1ccccc1 (configuration not stated)    93.3 µM
5) Cn1c(=O)c2c(ncn2CCCCn2ccnc2[N+](=O)[O-])n(C)c1=O    > 100 µM

Req: TGI lookup needed for "CNC(=S)NNC1=NCCCN1" , thanks.
Resp: > 100 µM

Req: TGI lookup needed for CCCCCCOC(=O)C(N)Cc1ccc(OC)cc1 (configuration not stated) , thanks.
Resp: > 100 µM

Req: TGI lookup needed for "C/C(=C\CNc1ncnc2nc(Cl)[nH]c12)CO" , thanks.
Resp: > 100 µM

Req: TGI lookup needed for "Nn1c(-c2ccccc2Nc2ccccc2-c2n[nH]c(=S)n2N)n[nH]c1=S" , thanks.
Resp: > 50 µM

Req: TGI lookup needed for COC(=O)C1=C(C(=O)Nc2cccnc2)C2OC1(C(Cc1ccccc1)Oc1ccccc1)C1OC21 (configuration not stated) , thanks.
Resp: 27.2 µM

* * *

# Test system: OVCAR-3 ovarian
# testName: NCI tumour cell line growth inhibition, 48 h
measureName: TGI

1) Nc1nn(C(=O)Nc2ccc(Cc3ccccc3)cc2)c2ccc(Cl)cc12    21.6 µM
2) CC1=C(C(=O)OCCc2ccc([N+](=O)[O-])cc2)C(c2ccccc2C(F)(F)F)C(C(=O)OC(C)C)=C(C)N1 (stereo not drawn)    > 100 µM

Req: What value of TGI on OVCAR-3 ovarian does "CC(C)CC(=O)N1CCN(C(=O)CC(C)C)c2ccccc21" have?
Resp: > 100 µM

* * *

The following compounds are listed with their measured TGI values.
# Tested on: MDA-MB-231 breast
# testName: NCI tumour cell line growth inhibition, 48 h
Value expressed in µM; do not type the unit.

Below, 5 compounds whose answers are already recorded.
1) C/C=C1/CN2CCC34C5=CC(=O)C(c6cc7c(cc6OC)N(C)C6=C(C(=O)OC)CC8(CC)CCCN9CCC67C98)=CC5=NC23CCC1C4C(=O)OC (stereo unspecified)    23.5
2) O=C(Nc1cccc(-n2cc(-c3ccncc3)c(-c3cc(O)cc(Cl)c3)n2)c1)Nc1ccc(Cl)c(Cl)c1    7.7
3) CCN(CC)CC(O)CNc1ccc(NCC(O)CCl)c2c1C(=O)c1ccccc1C2=O (stereo unspecified)    27.8
4) O=C(COC(c1ccc(F)cc1)c1ccc(F)cc1)N1CCN(CCCc2ccccc2)CC1    11.3
5) Nc1ccccc1C#Cc1ccccc1C#Cc1ccccc1N    24.6

Req: What value of TGI on MDA-MB-231 breast does "COc1cccc2c3cccc(OC)c3c3[nH]cnc3c12" have?
Resp: 4.11

* * *

# Test system: 786-0 renal
# testName: NCI tumour cell line growth inhibition, 48 h
measureName: TGI (µM)
Value expressed in µM; do not type the unit.

1. CC(C)(C)C1CCC2c3c([nH]c4ccccc34)C3C(=O)N(c4cccc(Cl)c4)C(=O)C3C2C1 (stereo not given)    22

Req: TGI lookup needed for "O=C(CSc1nc2ccc(Cl)cc2c(=O)n1-c1ccccc1)N=Nc1c(O)[nH]c2ccc(F)cc12" , thanks.
Resp: 4.45

Req: TGI lookup needed for "Cn1c2c(c3c(=O)[nH]ncc31)CCc1ccccc1-2" , thanks.
Resp: 73.4

Req: TGI lookup needed for C[C@H]1O[C@@H](O[C@H]2[C@@H](O)C[C@H](O[C@H]3[C@@H](O)C[C@H](O[C@H]4CC[C@]5(C)C6C[C@@H](O)[C@]7(C)[C@@H](C8=CC(=O)OC8)CC[C@]7(O)C6CC[C@@H]5C4)O[C@@H]3C)O[C@@H]2C)C[C@H](O)[C@@H]1O (stereo not given in full) , thanks.
Resp: 0.16

Req: TGI lookup needed for CC(/C=C/C=C/C=C/C=C/C=C/C(O)=C1/C(=O)C(CCC(=O)O)N(C)C1=O)=C\C(C)C(OC1CC(O)C(O)C(C)O1)C(C)C (stereo not given) , thanks.
Resp: 11.1

Req: TGI lookup needed for "Cc1cc(=O)cc2sc3cc(Cl)ccc3nc1-2" , thanks.
Resp: 29

Req: TGI lookup needed for "CCN(CC)CCC(=O)c1ccc(Oc2ccc(C)cc2)cc1" , thanks.
Resp: 30.1

Req: TGI lookup needed for C/C=C/C=C/C1=NN(c2cccc(S(=O)(=O)O)c2)C2(C1)C(Cl)C(=O)N2c1nc2ccccc2s1 (stereo not given) , thanks.
Resp: 26.7

Req: TGI lookup needed for "CCCCN(CCCC)c1cc(C(=O)CCCCCN)c2ccccc2n1" , thanks.
Resp: 3.27

Req: TGI lookup needed for COc1ccccc1/C=C1\CCC(CN(C)C)C1=O (stereo not given) , thanks.
Resp: 5.08

* * *

The following compounds are listed with their measured GI50 values.
# System: NCI-H226 lung
# testName: NCI tumour cell line growth inhibition, 48 h

1. CN(C)c1cc2c(cc1Sc1nc3c(N)nccc3n1CCNCC(C)(C)C)OCO2    1.69 µM

Req: GI50 lookup needed for "Clc1ccc(-c2nc(-c3c[nH]c4ncccc34)cs2)cc1" , thanks.
Resp: > 100 µM

Req: GI50 lookup needed for "NC(=O)c1cccc(N)c1" , thanks.
Resp: > 100 µM

Req: GI50 lookup needed for C[C@@]12CCC[C@@](C)(C(=O)O)C1CC[C@]13C=C(CO)[C@](O)(CCC12)C3 (stereo not given in full) , thanks.
Resp: > 100 µM

Req: GI50 lookup needed for "Clc1cccc(Cn2cc(Cc3cn(Cc4cccc(Cl)c4)c4ccccc34)c3ccccc32)c1" , thanks.
Resp: 10.1 µM
